Read-out: Cytochrome P450 (CYP1A1), CYP1A1 (gene 1543)
assay-notes: LTEA_HepaRG_CYP1A1: Life Technologies and Expression Analysis (LTEA) Assay for Cytochrome P450 (CYP1A1) using HepaRG (AID 2283454)
measurement-setup: mRNA level, 48 h; actives raise or lower the signal
Calls of active or inactive are those of the source. Rule for the calls: active = hit-call score of the fitted dose curve at least 0.9, where 1 is the maximum; inactive = score below 0.9.
reported-property: AC50

Here are 6 compounds together with their reported answers.
[[record]]
compound = "CN(C)CCCN1c2ccccc2Sc2ccc(Cl)cc21"
recorded_result = "27.1 µM (active)"

[[record]]
compound = "Oc1ccc(O)cc1"
recorded_result = "50 µM (active)"

[[record]]
compound = "CCCCCCC(CCCCCCCCCCC(=O)OCC(COC(C)=O)OC(C)=O)OC(C)=O (configuration not stated)"
recorded_result = "inactive"

[[record]]
compound = "CC(=O)O[C@]1(C(C)=O)CC[C@H]2[C@@H]3C=C(Cl)C4=CC(=O)[C@@H]5C[C@@H]5[C@]4(C)[C@H]3CC[C@@]21C"
recorded_result = "inactive"

[[record]]
compound = "Cc1cc(Cc2ccc(N)c(C)c2)ccc1N"
recorded_result = "50 µM (active)"

[[record]]
compound = "CCCCC(CC)COP(=O)(OCC(CC)CCCC)OCC(CC)CCCC (configuration not stated)"
recorded_result = "25.6 µM (active)"


Sure, the documented AC50 for CC(COCC(C)OC(=O)c1ccccc1)OC(=O)c1ccccc1 (configuration not stated) is 87.6 µM (active)

Memo: CCCCC(CC)COC(=O)CCCCCCCC(=O)OCC(CC)CCCC (configuration not stated) , reported AC50: 50 µM (active)

Query COC(=O)CCC(=O)OC yields AC50 of 50 µM (active)

What the record says about O=C1OC(c2ccc(O)cc2)(c2ccc(O)cc2)c2ccccc21 : AC50 is 50 µM (active)

Documented AC50 of CC(C)(C)c1ccccc1 : 50 µM (active)

Just so you know, measured AC50 for CCN(CC)CCOc1ccc(C(=C(Cl)c2ccccc2)c2ccccc2)cc1 came out at inactive

====

assay-notes: ACEA_AR_agonist_AUC_viability: ACEA Biosciences xCELLigence Real-Time Cell Analysis on Androgen Receptor Agonism for Viability (AID 2283775)
Records with an inconclusive call do not appear. Calls of active or inactive are those of the source. Rule for the calls: active = hit-call score of the fitted dose curve at least 0.9, where 1 is the maximum; inconclusive = response in the unintended direction; inactive = score below 0.9.
Thanks in advance; please answer with one of these: active, inactive

[in] Query: recorded result category for Nc1nc(Cl)nc2c1ncn2[C@H]1C[C@H](O)[C@@H](CO)O1 in this test
[out] active

[in] Field: outcome | Entry: CC(C)COC(=O)CCCCC(=O)OCC(C)C
[out] inactive

[in] Could you kindly confirm the outcome this assay logged for Cc1cn([C@H]2C=C[C@@H](CO)O2)c(=O)[nH]c1=O ?
[out] inactive

[in] Dear all, I need the recorded test outcome for Nc1nc(=S)c2[nH]cnc2[nH]1 , thank you.
[out] active

[in] For NC(=Nc1ccccc1)Nc1ccccc1 , which call appears in the assay record?
[out] inactive

[in] What did the test return for CCCCCCCCCCCCCCCCO ?
[out] inactive

[in] What was the test verdict on OCC(CO)n1cnc(-c2ccc(F)cc2)c1-c1ccnc(Oc2ccccc2)n1 ?
[out] inactive

[in] Assay result, entry O=Cc1ccccc1C=O — outcome?
[out] active

[in] Hello, I am checking results. What call was entered for Cc1ccc(-c2cc(C(F)(F)F)nn2-c2ccc(S(N)(=O)=O)cc2)cc1 ?
[out] active

[in] What is the recorded call for this compound in the test? CN(C)CCCN(C)CCCN(C)C
[out] inactive

[in] Write down the call the test reported for this compound. Item: CC(=O)O
[out] inactive

[in] Recorded call for CCCCOC(=O)CCCCC(=O)OCCCC ?
[out] inactive

[in] Can you look up the reported call for CCc1nc(N)nc(N)c1-c1ccc(Cl)cc1 for me?
[out] active

[in] For CC1(C)C(=O)NC(=O)N1CO , which call appears in the assay record?
[out] inactive

[in] Returns: the outcome recorded for CC(=O)CC(c1ccccc1)c1c(O)c2ccccc2oc1=O (stereo unspecified) in this assay.
[out] inactive

[in] Dear colleague, could you share the recorded outcome for COc1ccc(OC(F)(F)F)cc1CN[C@H]1CCCN[C@H]1c1ccccc1 when you have a moment?
[out] active

[in] // outcome(item) with item = CC1=C(C)S(=O)(=O)CCS1(=O)=O
[out] active

[in] State the result this test recorded for CCCCCCCCCCCCCCOS(=O)(=O)O .
[out] active

[in] // outcome(item) with item = COC(=O)[C@H]1[C@H]2C[C@@H]3c4[nH]c5cc(OC)ccc5c4CCN3C[C@H]2C[C@@H](OC(=O)c2cc(OC)c(OC)c(OC)c2)[C@@H]1OC
[out] active

[in] What is the recorded call for this compound in the test? CCCC[C@H]1CN(CC2CCOCC2)C(=O)OC12CCN(C1(C)CCN(C(=O)c3c(C)ncnc3C)CC1)CC2
[out] inactive

[in] # fetch the recorded call for C=CCCCCCCCCCCCC here
[out] inactive

[in] Hi, do you know how Cc1c(C)c2c(c(C)c1O)CCC(C)(COc1ccc(CC3SC(=O)NC3=O)cc1)O2 (stereo unspecified) came out in this test?
[out] active

[in] Fill in: this test's call for NC1CCCCC1 is ___
[out] inactive

[in] Short answer needed: outcome of this test for Cc1ccc(C(C)(C)C)c(O)c1 ?
[out] inactive

[in] What outcome does the record of this test show for CCCCc1nc2cccnc2n1Cc1ccc(-c2ccccc2-c2nnn[nH]2)cc1 ?
[out] active

[in] # outcome recorded in this test, key = C#CC(O)C(CC)CCCC (stereo unspecified)
[out] inactive

====

Read-out: Fatty Acid-Binding Protein 1 (FABP1), FABP1 (gene 2168)
assay-notes: LTEA_HepaRG_FABP1: Life Technologies and Expression Analysis (LTEA) Assay for Fatty Acid-Binding Protein 1 (FABP1) using HepaRG (AID 2283494)
measurement-setup: mRNA level, 48 h; actives raise or lower the signal
Active and inactive are the calls of the source. The calls were made as follows: active = hit-call score of the fitted dose curve at least 0.9, where 1 is the maximum; inactive = score below 0.9.
Pick one and only one: active, inactive

[in] Please indicate how the test categorized CC(COCC(C)OC(=O)c1ccccc1)OC(=O)c1ccccc1 (stereo not drawn) .
[out] inactive

[in] So what was the verdict on NC(=Nc1ccccc1)Nc1ccccc1 in this test?
[out] inactive

[in] Answer briefly: the call reported for CCc1nc(N)nc(N)c1-c1ccc(Cl)cc1 in this assay.
[out] inactive

[in] // outcome(item) with item = O=Cc1ccccc1C=O
[out] inactive

[in] # lookup: test call for Cc1cc(Cc2ccc(N)c(C)c2)ccc1N
[out] inactive

[in] Each compound tested received a call. Report the one for CCCCCCC(C=O)=Cc1ccccc1 .
[out] inactive

[in] What was the test verdict on Cc1c(C)c2c(c(C)c1O)CCC(C)(COc1ccc(CC3SC(=O)NC3=O)cc1)O2 (stereo not drawn) ?
[out] inactive

[in] Can you look up the reported call for O=C1c2c(O)cccc2Cc2cccc(O)c21 for me?
[out] inactive

[in] Status in this test for O=C(O)CC(O)(CC(=O)O)C(=O)O ?
[out] inactive

[in] Hello, I am checking results. What call was entered for CCCCC(CC)COP(=O)(OCC(CC)CCCC)OCC(CC)CCCC (stereo not drawn) ?
[out] inactive

[in] # fetch the recorded call for Oc1ccccc1O here
[out] inactive

[in] Dear all, I need the recorded test outcome for CO[C@@H]1COCC[C@@H]1N[C@@H]1CC[C@@](C(=O)N2CCc3ncc(C(F)(F)F)cc3C2)(C(C)C)C1 , thank you.
[out] inactive

[in] Please let me know the test result on file for O=C(O)c1[nH]n(-c2ccc(S(=O)(=O)O)cc2)c(=O)c1N=Nc1ccc(S(=O)(=O)O)cc1 .
[out] inactive

[in] Recorded test call requested for CCCCCCCCCC[N+](C)(C)[O-]
[out] inactive

[in] Check the results log: what was the call for CN(C)C(=O)NC1(c2ccccc2)CCN(CC[C@@]2(c3ccc(F)c(F)c3)CN(C(=O)c3ccccc3)CCO2)CC1 ?
[out] inactive

[in] Hi team, can someone confirm the assay call for O=C(N[C@@H](c1ccccc1)[C@@H]1CCCCN1)c1cccc(C(F)(F)F)c1Cl ?
[out] active

[in] Returns: the outcome recorded for CC(N)=O in this assay.
[out] inactive

[in] Hi, sorry to bother you, what did the test record for C#CC(O)C(CC)CCCC (stereo not drawn) ?
[out] inactive

[in] Recorded call for CCCCC(CC)COC(=O)CCCCCCCC(=O)OCC(CC)CCCC (stereo not drawn) ?
[out] inactive

[in] What did the test return for CCCCC(CC)CO (stereo not drawn) ?
[out] inactive

[in] How was CC1=C(C)S(=O)(=O)CCS1(=O)=O classified in this test?
[out] active

[in] For CS(=O)(=O)c1ccc([C@@H](C[C@H]2CCC(=O)C2)C(=O)Nc2cnccn2)cc1Cl , what call appears in the results of this test?
[out] inactive

[in] Hi, sorry to bother you, what did the test record for Cc1cn([C@H]2C=C[C@@H](CO)O2)c(=O)[nH]c1=O ?
[out] inactive

[in] Tell me the assay call for O=C(O)c1cccnc1 please.
[out] inactive

[in] What did the test return for CCCC[C@H]1CN(CC2CCOCC2)C(=O)OC12CCN(C1(C)CCN(C(=O)c3c(C)ncnc3C)CC1)CC2 ?
[out] inactive

[in] Each compound tested received a call. Report the one for CC(C)c1cccc(C(C)C)c1NC(=O)NS(=O)(=O)c1cc(C(C)(C)O)co1 .
[out] active

[in] Query: recorded result category for CC(=O)O[C@]1(C(C)=O)CC[C@H]2[C@@H]3C=C(Cl)C4=CC(=O)[C@@H]5C[C@@H]5[C@]4(C)[C@H]3CC[C@@]21C in this test
[out] active

[in] Please let me know the test result on file for Cc1occc(=O)c1O .
[out] inactive

[in] Identify the outcome logged in this assay for the compound shown: O=C1O[C@H]([C@H](O)CO)C(O)=C1O
[out] inactive

[in] Test call, this compound: OCC(CO)n1cnc(-c2ccc(F)cc2)c1-c1ccnc(Oc2ccccc2)n1
[out] active

[in] Field: outcome | Entry: OCC(O)CO
[out] inactive

[in] Recorded test outcome, item NC1CCCCC1
[out] inactive

[in] What classification did CCCCCCCCCCCCCCOS(=O)(=O)O end up with in this test?
[out] inactive

[in] Query: recorded result category for CCCCOC(=O)CCCCC(=O)OCCCC in this test
[out] inactive

[in] Which outcome was assigned to O=C(NS(=O)(=O)/C=C/c1cccs1)c1ccc(F)cc1Br in this test?
[out] active

[in] Could you check what this test reported for NC=O ?
[out] inactive

[in] # fetch the recorded call for O=C(Oc1ccccc1)c1cccc(C(=O)Oc2ccccc2)c1 here
[out] inactive

[in] Could you check what this test reported for O=C1CCCCC1 ?
[out] inactive

[in] I would be grateful if you could indicate the recorded call for CCCC(=O)O .
[out] inactive

[in] Recorded call for Oc1ccc(O)cc1 ?
[out] inactive

[in] Tell me the recorded outcome of this test for Cc1ccc(-c2cc(C(F)(F)F)nn2-c2ccc(S(N)(=O)=O)cc2)cc1 .
[out] active

[in] Which result was noted for this compound in the test: CC(C)(O)c1ccc(CNC(=O)c2cccnc2Oc2ccc(F)cc2)cc1
[out] active

[in] Each compound tested received a call. Report the one for CC(=O)[C@@]1(O)CC[C@H]2[C@@H]3CCC4=CC(=O)CC[C@]4(C)[C@H]3CC[C@@]21C .
[out] inactive

[in] Assay result, entry CC(=O)O — outcome?
[out] inactive

[in] What call does the record list for N[C@@H](Cc1c[nH]c2ccccc12)C(=O)O ?
[out] inactive

[in] Which outcome did this test record for the compound CC(=O)OC1CC(C)OC(C)O1 (stereo not drawn) ?
[out] inactive

[in] Just curious, what result did CCN(CC)CCOc1ccc(C(=C(Cl)c2ccccc2)c2ccccc2)cc1 get here?
[out] inactive

[in] Please share the test call associated with CCc1cc(C2=C(C(=O)O)N(c3ccccc3C(F)(F)F)S(=O)(=O)c3ccccc32)cc2c1OCO2 .
[out] inactive
